# System: Clostridium sporogenes DSM 1664
# assay_info: fold change of Tryptamine concentration vs plate DMSO controls (fold change (ratio)); higher = more amine produced, active = hit call of the paper (significant change in both replicates, either direction)
# reported_conditions: 20 µM; incubation time: 27 h, anaerobic, 37 °C
Structures can show the parent of a compound that is named as a salt.

- molecule: "C[C@]12CC[C@H]3[C@@H](CCC4=CC(=O)CC[C@@H]43)[C@@H]1CC[C@@H]2O"
  target: "Clostridium sporogenes DSM 1664"
  fold change of Tryptamine concentration: 1.01
- molecule: "C#CCN(C)[C@H](C)Cc1ccccc1 [Selegiline hydrochloride]"
  target: "Clostridium sporogenes DSM 1664"
  fold change of Tryptamine concentration: 1.11
- molecule: "CC(C)C[C@H](CN)CC(=O)O"
  target: "Clostridium sporogenes DSM 1664"
  fold change of Tryptamine concentration: 1.04
- molecule: "N#CCNC(=O)c1cnccc1C(F)(F)F"
  target: "Clostridium sporogenes DSM 1664"
  fold change of Tryptamine concentration: 1
- molecule: "CN[C@@H]1C[C@@H](c2ccc(Cl)c(Cl)c2)c2ccccc21 [Indatraline hydrochloride]"
  target: "Clostridium sporogenes DSM 1664"
  fold change of Tryptamine concentration: 1.29
- molecule: "CC(=O)O[C@H]1C[C@H](O[C@H]2[C@@H](O)C[C@H](O[C@H]3[C@@H](O)C[C@H](O[C@H]4CC[C@@]5(C)[C@H](CC[C@@H]6[C@@H]5C[C@@H](O)[C@]5(C)[C@@H](C7=CC(=O)OC7)CC[C@]65O)C4)O[C@@H]3C)O[C@@H]2C)O[C@H](C)[C@H]1O[C@@H]1O[C@H](CO)[C@@H](O)[C@H](O)[C@H]1O [Lanatoside C]"
  target: "Clostridium sporogenes DSM 1664"
  fold change of Tryptamine concentration: 0.962
- molecule: "Oc1ccccc1-c1ccccc1"
  target: "Clostridium sporogenes DSM 1664"
  fold change of Tryptamine concentration: 0.993
- molecule: "CCN(CC)c1nc(C)cc(OP(=S)(OC)OC)n1"
  target: "Clostridium sporogenes DSM 1664"
  fold change of Tryptamine concentration: 1.06
- molecule: "CC(C)(C)NCC(O)c1cc(Cl)c(N)c(Cl)c1 (centres undefined) [Clenbuterol hydrochloride]"
  target: "Clostridium sporogenes DSM 1664"
  fold change of Tryptamine concentration: 0.986
- molecule: "COc1cc(C)c(C(=O)c2c(OC)ccc(Br)c2C)c(OC)c1OC"
  target: "Clostridium sporogenes DSM 1664"
  fold change of Tryptamine concentration: 0.978
- molecule: "CC(C)N(C(=O)COc1nnc(C(F)(F)F)s1)c1ccc(F)cc1"
  target: "Clostridium sporogenes DSM 1664"
  fold change of Tryptamine concentration: 1.01
- molecule: "C=CCN1CC[C@]23c4c5ccc(O)c4O[C@H]2C(=O)CC[C@@]3(O)[C@H]1C5 [Naloxone hydrochloride]"
  target: "Clostridium sporogenes DSM 1664"
  fold change of Tryptamine concentration: 1.01
- molecule: "CNC(=O)c1cc(Cl)cc(C)c1NC(=O)c1cc(Br)nn1-c1ncccc1Cl"
  target: "Clostridium sporogenes DSM 1664"
  fold change of Tryptamine concentration: 0.953
- molecule: "CC(CCc1ccccc1)NC(C)C(O)c1ccc(O)cc1 (centres undefined)"
  target: "Clostridium sporogenes DSM 1664"
  fold change of Tryptamine concentration: 0.986
- molecule: "O=C(CCCN1CCC(n2c(=O)[nH]c3ccccc32)CC1)c1ccc(F)cc1"
  target: "Clostridium sporogenes DSM 1664"
  fold change of Tryptamine concentration: 1.01
- molecule: "N#Cc1cc(Br)c(O)c(Br)c1"
  target: "Clostridium sporogenes DSM 1664"
  fold change of Tryptamine concentration: 0.955
- molecule: "COC(=O)N(C(=O)N1CO[C@@]2(C(=O)OC)Cc3cc(Cl)ccc3C2=N1)c1ccc(OC(F)(F)F)cc1"
  target: "Clostridium sporogenes DSM 1664"
  fold change of Tryptamine concentration: 1.03
- molecule: "NCCCNCCSP(=O)(O)O"
  target: "Clostridium sporogenes DSM 1664"
  fold change of Tryptamine concentration: 1.01
- molecule: "CC[C@@H](C(N)=O)N1CCCC1=O"
  target: "Clostridium sporogenes DSM 1664"
  fold change of Tryptamine concentration: 1.06

----------
# Test system: Klebsiella aerogenes DSM 30053
# assay_info: fold change of Histamine concentration vs plate DMSO controls (fold change (ratio)); higher = more amine produced, active = hit call of the paper (significant change in both replicates, either direction)
# reported_conditions: 20 µM; incubation time: 27 h, anaerobic, 37 °C
Where a name gives a salt, the structure may show the parent alone.
Recorded measurements of fold change of Histamine concentration, one per entry
readout_label: fold change of Histamine concentration

- compound: "CC(C)OC(=O)C(C(=O)OC(C)C)=C1SCCS1"
  numeric_readout: 0.989
- compound: "CC(=O)O[C@H]1C[C@@H]2CC[C@@H]3[C@H](CC[C@@]4(C)[C@H]3C[C@H]([N+]3(C)CCCCC3)[C@@H]4OC(C)=O)[C@@]2(C)C[C@@H]1[N+]1(C)CCCCC1 [Pancuronium bromide]"
  numeric_readout: 0.905
- compound: "COP(N)(=O)SC (stereo unspecified)"
  numeric_readout: 0.935
- compound: "CC[C@@H](C(=O)[C@@H](C)[C@@H](O)[C@H](C)[C@@H]1O[C@@H]([C@@H](CC)C(=O)O)CC[C@@H]1C)[C@H]1O[C@]2(C=C[C@@H](O)[C@]3(CC[C@@](C)([C@H]4CC[C@](O)(CC)[C@H](C)O4)O3)O2)[C@H](C)C[C@@H]1C [Salinomycin sodium]"
  numeric_readout: 1.02
- compound: "CC(=O)OCC(=O)[C@H]1CC[C@H]2[C@@H]3CC[C@H]4C[C@H](O)CC[C@]4(C)[C@H]3C(=O)C[C@]12C [Alfadolone acetate]"
  numeric_readout: 1.03
- compound: "N#Cc1c[nH]cc1-c1cccc2c1OC(F)(F)O2"
  numeric_readout: 1.01
- compound: "CCCSP(=O)(OCC)Oc1ccc(Br)cc1Cl (stereo unspecified)"
  numeric_readout: 1.01
- compound: "CN1COCN(Cc2cnc(Cl)s2)/C1=N\\[N+](=O)[O-]"
  numeric_readout: 1.01
- compound: "CCOc1cc(Oc2ccc(C(F)(F)F)cc2Cl)ccc1[N+](=O)[O-]"
  numeric_readout: 0.981
- compound: "O=C1CC[C@@]2(O)[C@H]3Cc4ccc(O)c5c4[C@@]2(CCN3CC2CC2)[C@H]1O5 [Naltrexone hydrochloride dihydrate]"
  numeric_readout: 1.03
- compound: "O=[N+]([O-])/N=C1\\NCCN1Cc1ccc(Cl)nc1"
  numeric_readout: 0.986
- compound: "C=C1CC[C@@]2(O)[C@H]3Cc4ccc(O)c5c4[C@@]2(CCN3CC2CC2)[C@H]1O5 [Nalmefene hydrochloride]"
  numeric_readout: 1.02
- compound: "CO/C=C(/C(=O)OC)c1ccccc1Oc1cc(Oc2ccccc2C#N)ncn1"
  numeric_readout: 0.996
- compound: "O=C(Nc1ccccc1-c1ccc(Cl)cc1)c1cccnc1Cl"
  numeric_readout: 0.953
- compound: "O=C(NC(=O)c1c(F)cccc1F)Nc1ccc(OC(F)(F)C(F)OC(F)(F)F)c(Cl)c1 (stereo unspecified)"
  numeric_readout: 0.951
- compound: "c1cc2ccc3cccc4ccc(c1)c2c34 [Pyrene]"
  numeric_readout: 0.993
- compound: "C#CCOc1ccc(CCNC(=O)C(OCC#C)c2ccc(Cl)cc2)cc1OC (stereo unspecified)"
  numeric_readout: 0.95
- compound: "O=C(O[C@H]1C[N+]2(CCCOc3ccccc3)CCC1CC2)C(O)(c1cccs1)c1cccs1 [Aclidinium bromide]"
  numeric_readout: 1.05
- compound: "CCN(CC)C(C)C(=O)c1ccccc1 (stereo unspecified) [Amfepramone hydrochloride]"
  numeric_readout: 0.955
- compound: "Nc1c([N+](=O)[O-])ccc(Oc2ccccc2)c1Cl"
  numeric_readout: 0.974
- compound: "N[C@@H]1C[C@H]1c1ccccc1 [Tranylcypromine hydrochloride]"
  numeric_readout: 1.1
- compound: "N#CC(CCc1ccc(Cl)cc1)(Cn1cncn1)c1ccccc1 (stereo unspecified)"
  numeric_readout: 0.476
- compound: "O=NN(CCO)CCO [DMNA (N-nitrosodiethanolamine)]"
  numeric_readout: 0.975
- compound: "CC1(C)C(C(=O)OC(C#N)c2cccc(Oc3ccccc3)c2)C1(C)C (stereo unspecified)"
  numeric_readout: 1
- compound: "CCCC(C)(COC(N)=O)COC(=O)NC(C)C (stereo unspecified) [Carisoprodol]"
  numeric_readout: 1.03
- compound: "O=C(O)C(F)(F)C(F)(F)C(F)(F)C(F)(F)C(F)(F)C(F)(F)C(F)(F)C(F)(F)C(F)(F)F [PFDeA (Perfluorodecanoic acid)]"
  numeric_readout: 1.02
- compound: "NC(=O)OCCCc1ccccc1 [Phenprobamate]"
  numeric_readout: 0.97
- compound: "C=C1C[C@@H]2[C@H](CC[C@]3(C)C(=O)CC[C@@H]23)[C@@]2(C)C=CC(=O)C=C12 [Exemestane]"
  numeric_readout: 0.984
- compound: "O=C(NCCc1ncc(C(F)(F)F)cc1Cl)c1ccccc1C(F)(F)F"
  numeric_readout: 0.918
- compound: "CC(C)(C)C(O)C(Oc1ccc(Cl)cc1)n1cncn1 (stereo unspecified)"
  numeric_readout: 0.993
- compound: "C[C@H](N)[C@H](O)c1ccc(O)c(O)c1 [Levonordefrin]"
  numeric_readout: 0.953
- compound: "Nc1nc(N)nc(NC2CC2)n1 [Cyromazine]"
  numeric_readout: 0.979
- compound: "C#C[C@]1(O)CC[C@H]2[C@@H]3CCC4=CC(=O)CC[C@]4(C)[C@H]3CC[C@@]21C [Ethisterone]"
  numeric_readout: 1.05
- compound: "C[C@]12CC[C@H](O)C[C@@H]1CC[C@@H]1[C@@H]2CC[C@]2(C)C(=O)CC[C@@H]12 [Epiandrosterone]"
  numeric_readout: 1.04
- compound: "CC[N+]1(C)CCCC(OC(=O)C(O)(c2ccccc2)c2ccccc2)C1 (stereo unspecified) [Pipenzolate bromide]"
  numeric_readout: 0.982
- compound: "COc1ccc(C(=O)N2CCCC2=O)cc1 [Aniracetam]"
  numeric_readout: 0.853

Where these numbers come from: the supplement of paper PMC12494721
